Kindly state IC50 for each of the entries shown.
Biological target: BCL-XL (Homo sapiens, UniProt Q07817)
Sequence (Q07817 whole entry): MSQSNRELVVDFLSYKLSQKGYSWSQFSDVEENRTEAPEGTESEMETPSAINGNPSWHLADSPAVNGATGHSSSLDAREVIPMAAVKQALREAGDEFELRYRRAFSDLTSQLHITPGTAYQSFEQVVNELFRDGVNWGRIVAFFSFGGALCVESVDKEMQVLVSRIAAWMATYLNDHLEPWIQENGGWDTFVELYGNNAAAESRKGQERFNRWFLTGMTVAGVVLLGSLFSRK
Test: HTRF BCL-XL/BAK assay (Cisbio)
Details: recombinant human Tag1-BCL-XL 2 nM, Tag2-BAK 5 nM

Hello, I am looking for reported IC50 with BCL-XL (Homo sapiens, UniProt Q07817) for O=C(NS(=O)(=O)c1ccc(NCC2CCOCC2)c([N+](=O)[O-])c1)c1ccc(N2CCN([C@@H]3CCCCc4c(Br)cccc43)CC2)cc1Oc1cnc2[nH]ccc2c1 [Compound 66] . Could you help?
20 to 200 nM

Hello, I am looking for reported IC50 with BCL-XL (Homo sapiens, UniProt Q07817) for O=C1CCC(N2CCN(c3ccc(C(=O)NS(=O)(=O)c4ccc(NCC5CCOCC5)c([N+](=O)[O-])c4)c(Oc4cnc5[nH]ccc5c4)c3)CC2)c2ccccc2N1 (centres unmarked) [Compound 28] . Could you help?
> 2000 nM

Hello, I am looking for reported IC50 with BCL-XL (Homo sapiens, UniProt Q07817) for O=C(NS(=O)(=O)c1ccc(NCC2CC3(CCNCC3)C2)c([N+](=O)[O-])c1)c1ccc(N2CCN([C@@H]3CCCCc4c(Cl)cccc43)CC2)cc1Oc1cnc2[nH]ccc2c1 [Compound 104] . Could you help?
< 20 nM

Hello, I am looking for reported IC50 with BCL-XL (Homo sapiens, UniProt Q07817) for O=C(NS(=O)(=O)c1ccc(NCC2CCOCC2)c([N+](=O)[O-])c1)c1ccc(N2CCN([C@@H]3CCCCc4c(O)cccc43)CC2)cc1Oc1cnc2[nH]ccc2c1 [Compound 40] . Could you help?
> 2000 nM

Hello, I am looking for reported IC50 with BCL-XL (Homo sapiens, UniProt Q07817) for CS(=O)(=O)N1CCC2(CC1)CC(CNc1ccc(S(=O)(=O)NC(=O)c3ccc(N4CCN([C@@H]5CCCCc6c(Cl)cccc65)CC4)cc3Oc3cnc4[nH]ccc4c3)cc1[N+](=O)[O-])C2 [Compound 107] . Could you help?
20 to 200 nM
